// provenance: patent US20170342144A1

# target desc: T1, human TGFβ3 (human, UniProt P10600 301-412)
# T1 sequence: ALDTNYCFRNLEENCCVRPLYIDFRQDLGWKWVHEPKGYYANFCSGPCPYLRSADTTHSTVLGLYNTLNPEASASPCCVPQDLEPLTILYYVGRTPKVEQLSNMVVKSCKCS
# protocol notes: Biacore off-rate vs wt GC1008, 50 nM
# Experimental: Plasmids encoding either the GC1008 heavy chain or light chain were used as a template in PCR-based mutagenesis reactions. […] Purified variant antibody samples were analyzed in duplicate on a Biacore® 3000 (GE Healthcare) at 50 nM concentrations, using the 100 RU level TGFβ1, 2, and 3 immobilized surfaces. […]
Here the recorded kd var/kd wt is given for each entry.
A bare number is all that is needed in reply.

Check out these entries, answers already filled in.
binder | kd var/kd wt
N32L (antibody, V domains shown, GC1008 IgG4 variant) VH: QVQLVQSGAEVKKPGSSVKVSCKASGYTFSSLVISWVRQAPGQGLEWMGGVIPIVDIANYAQRFKGRVTITADESTSTTYMELSSLRSEDTAVYYCASTLGLVLDAMDYWGQGTLVTVSS VL: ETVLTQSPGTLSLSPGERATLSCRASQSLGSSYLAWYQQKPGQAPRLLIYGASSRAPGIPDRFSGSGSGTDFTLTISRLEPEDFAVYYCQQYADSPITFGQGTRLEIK | 1.7
L104W (antibody, V domains shown, GC1008 IgG4 variant) VH: QVQLVQSGAEVKKPGSSVKVSCKASGYTFSSNVISWVRQAPGQGLEWMGGVIPIVDIANYAQRFKGRVTITADESTSTTYMELSSLRSEDTAVYYCASTLGLVWDAMDYWGQGTLVTVSS VL: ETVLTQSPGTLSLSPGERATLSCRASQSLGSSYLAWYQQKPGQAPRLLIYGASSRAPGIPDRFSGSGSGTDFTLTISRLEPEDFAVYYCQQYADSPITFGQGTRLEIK | 5.1
N32R (antibody, V domains shown, GC1008 IgG4 variant) VH: QVQLVQSGAEVKKPGSSVKVSCKASGYTFSSRVISWVRQAPGQGLEWMGGVIPIVDIANYAQRFKGRVTITADESTSTTYMELSSLRSEDTAVYYCASTLGLVLDAMDYWGQGTLVTVSS VL: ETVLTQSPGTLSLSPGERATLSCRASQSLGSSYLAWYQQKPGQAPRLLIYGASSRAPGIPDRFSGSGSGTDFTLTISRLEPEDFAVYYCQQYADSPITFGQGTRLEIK | 1.7
S30W (antibody, V domains shown, GC1008 IgG4 variant) VH: QVQLVQSGAEVKKPGSSVKVSCKASGYTFWSNVISWVRQAPGQGLEWMGGVIPIVDIANYAQRFKGRVTITADESTSTTYMELSSLRSEDTAVYYCASTLGLVLDAMDYWGQGTLVTVSS VL: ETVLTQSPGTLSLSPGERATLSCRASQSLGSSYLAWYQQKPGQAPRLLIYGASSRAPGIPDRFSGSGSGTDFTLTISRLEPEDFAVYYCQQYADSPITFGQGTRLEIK | 0.3

Kindly consider the entry below.
Could you tell me which kd var/kd wt is on file for Y27S (antibody, V domains shown, GC1008 IgG4 variant) VH: QVQLVQSGAEVKKPGSSVKVSCKASGSTFSSNVISWVRQAPGQGLEWMGGVIPIVDIANYAQRFKGRVTITADESTSTTYMELSSLRSEDTAVYYCASTLGLVLDAMDYWGQGTLVTVSS VL: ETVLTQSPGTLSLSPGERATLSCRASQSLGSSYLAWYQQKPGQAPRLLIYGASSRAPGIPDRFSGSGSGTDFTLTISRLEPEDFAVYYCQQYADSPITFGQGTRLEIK ? 1.6
